Test system: Staphylococcus aureus X400
Experiment: MIC, standard agar-dilution assay, Staphylococcus aureus X400
Assay type: cell-based
Details: Staphylococcus aureus X400; methicillin-resistant strain; agar dilution
MEASURE: log10 MIC (log10 of the value in µg/mL)

compound="CC[C@H]1OC(=O)C[C@@H](O)[C@H](C)[C@@H](O[C@@H]2O[C@H](C)[C@H](O)[C@H](N(C)C)[C@H]2O)[C@@H](CCOc2ccccc2)C[C@@H](C)C(=O)/C=C/C(C)=C/[C@@H]1COC1O[C@H](C)[C@@H](O)[C@@H](OC)[C@H]1OC (stereo partly drawn) [Compound 33, 20-DH-20-O-Phenyldesmycosin]" measure="log10 MIC" measured_value=-0.60
compound="CCC1OC(=O)CC(O)C(C)C(OC2OC(C)C(O)C(N(C)C)C2O)C(CCOc2cccnc2)CC(C)C(=O)C=CC(C)=CC1COC1OC(C)C(O)C(OC)C1OC (stereo not drawn) [Compound 49, 20-DH-20-O-(Pyridin-3-yl)desmycosin]" measure="log10 MIC" measured_value=-0.30
compound="CCC1OC(=O)CC(O)C(C)C(OC2OC(C)C(O)C(N(C)C)C2O)C(CCOc2ccc(-c3ccccc3)cc2)CC(C)C(=O)C=CC(C)=CC1COC1OC(C)C(O)C(OC)C1OC (stereo not drawn) [Compound 41, 20-DH-20-O-(p-Phenylphenyl)desmycosin]" measure="log10 MIC" measured_value=-0.30
compound="CCC1OC(=O)CC(O)C(C)C(OC2OC(C)C(O)C(N(C)C)C2O)C(CCOc2ccccc2)CC(C)C(=O)C=CC(C)=CC1COC1OC(C)C(O)C(O)C1OC (stereo not drawn) [Compound 58, 20-DH-20-O-Phenyllactenocin]" measure="log10 MIC" measured_value=-0.60
compound="CCC1OC(=O)CC(O)C(C)C(OC2OC(C)C(O)C(N(C)C)C2O)C(CCOc2ccc(Oc3ccccc3)cc2)CC(C)C(=O)C=CC(C)=CC1COC1OC(C)C(O)C(OC)C1OC (stereo not drawn) [Compound 47, 20-DH-20-O-(p-Phenoxyphenyl)desmycosin]" measure="log10 MIC" measured_value=-0.30
compound="CCC(=O)OC1C(OC2C(CCCl)CC(C)C(=O)C=CC(C)=CC(COC3OC(C)C(O)C(OC)C3OC)C(CC)OC(=O)CC(O)C2C)OC(C)C(OC2CC(C)(O)C(O)C(C)O2)C1N(C)C (stereo not drawn) [Compound 63, 20-DH-DO-20-Chloro-2'-O-propionyltylosin]" measure="log10 MIC" measured_value=0.30
compound="CCC1OC(=O)CC(O)C(C)C(OC2OC(C)C(O)C(N(C)C)C2O)C(CCOc2nnc(-c3ccccc3)c(-c3ccccc3)n2)CC(C)C(=O)C=CC(C)=CC1COC1OC(C)C(O)C(OC)C1OC (stereo not drawn) [Compound 50]" measure="log10 MIC" measured_value=0.00
compound="CCC(=O)OC1C(OC2C(CCCl)CC(C)C(=O)C=CC(C)=CC(COC3OC(C)C(O)C(OC)C3OC)C(CC)OC(=O)CC(O)C2C)OC(C)C(O)C1N(C)C (stereo not drawn) [Compound 69]" measure="log10 MIC" measured_value=-0.30
compound="CCC1OC(=O)CC(O)C(C)C(OC2OC(C)C(O)C(N(C)C)C2O)C(CCN=[N+]=[N-])CC(C)C(=O)C=CC(C)=CC1COC1OC(C)C(O)C(OC)C1OC (stereo not drawn) [Compound 44, 20-DH-DO-20-Azidodesmycosin]" measure="log10 MIC" measured_value=-0.60
compound="CCC1OC(=O)CC(O)C(C)C(OC2OC(C)C(O)C(N(C)C)C2O)C(CCN2C(=O)c3ccccc3C2=O)CC(C)C(=O)C=CC(C)=CC1COC1OC(C)C(O)C(OC)C1OC (stereo not drawn) [Compound 43, 20-DH-DO-20-N-Phthalimidodesmycosin]" measure="log10 MIC" measured_value=-0.30
compound="CCC1OC(=O)CC(O)C(C)C(OC2OC(C)C(O)C(N(C)C)C2O)C(CCOc2cccc(Oc3ccccc3)c2)CC(C)C(=O)C=CC(C)=CC1COC1OC(C)C(O)C(OC)C1OC (stereo not drawn) [Compound 48, 20-DH-20-O-(m-Phenoxyphenyl)desmycosin]" measure="log10 MIC" measured_value=-0.30
compound="CCC1OC(=O)CC(O)C(C)C(OC2OC(C)C(O)C(N(C)C)C2O)C(CCOc2ncnc3ccccc23)CC(C)C(=O)C=CC(C)=CC1COC1OC(C)C(O)C(OC)C1OC (stereo not drawn) [Compound 51, 20-DH-20-O-(Quinazolin-4-yl)desmycosin]" measure="log10 MIC" measured_value=-0.30
compound="CCC1OC(=O)CC(O)C(C)C(OC2OC(C)C(OC3CC(C)(O)C(O)C(C)O3)C(N(C)C)C2OC(C)=O)C(CCOc2ccccc2)CC(C)C(=O)C=CC(C)=CC1COC1OC(C)C(O)C(OC)C1OC (stereo not drawn) [Compound 64, 20-DH-20-O-Phenyl-2'-O-acetyltylosin]" measure="log10 MIC" measured_value=0.60
compound="CCC1OC(=O)CC(O)C(C)C(OC2OC(C)C(OC(C)=O)C(N(C)C)C2OC(C)=O)C(CCOc2ccccc2)CC(C)C(=O)C=CC(C)=CC1COC1OC(C)C(O)C(OC)C1OC (stereo not drawn) [Compound 68]" measure="log10 MIC" measured_value=-0.30
compound="CCC(=O)OC1C(OC2C(CCN3C(=O)c4ccccc4C3=O)CC(C)C(=O)C=CC(C)=CC(COC3OC(C)C(O)C(OC)C3OC)C(CC)OC(=O)CC(O)C2C)OC(C)C(OC2CC(C)(O)C(O)C(C)O2)C1N(C)C (stereo not drawn) [Compound 62]" measure="log10 MIC" measured_value=0.30

---

System: Streptococcus Group 9960
Test: MIC, standard agar-dilution assay, Streptococcus Group 9960
Assay type: cell-based
Conditions: Streptococcus Group 9960; agar dilution
Response field label: string, one of true (1) (MIC strictly below 8 µg/mL) or false (0).

compound="CCC1OC(=O)CC(O)C(C)C(OC2OC(C)C(O)C(N(C)C)C2O)C(CCNC(=O)COc2ccccc2)CC(C)C(=O)C=CC(C)=CC1COC1OC(C)C(O)C(OC)C1OC (stereo not drawn) [Compound 51c]" class_label="true (1)"
compound="CCC1OC(=O)CC(O)C(C)C(OC2OC(C)C(O)C(N(C)C)C2O)C(CCOc2cccnc2)CC(C)C(=O)C=CC(C)=CC1COC1OC(C)C(O)C(OC)C1OC (stereo not drawn)" class_label="false (0)"
compound="CCC1OC(=O)CC(O)C(C)C(OC2OC(C)C(O)C(N(C)C)C2O)C(CCOc2cccc(Oc3ccccc3)c2)CC(C)C(=O)C=CC(C)=CC1COC1OC(C)C(O)C(OC)C1OC (stereo not drawn)" class_label="true (1)"
compound="CCC1OC(=O)CC(O)C(C)C(OC2OC(C)C(O)C(N(C)C)C2O)C(CCOc2ccc(Oc3ccccc3)cc2)CC(C)C(=O)C=CC(C)=CC1COC1OC(C)C(O)C(OC)C1OC (stereo not drawn)" class_label="true (1)"
compound="CC(=O)O.CC(=O)O.CCC1OC(=O)CC(O)C(C)C(OC2OC(C)C(O)C(N(C)C)C2O)C(CCN)CC(C)C(=O)C=CC(C)=CC1COC1OC(C)C(O)C(OC)C1OC (stereo not drawn) [Compound 51b, 20-DH-DO-20-Aminodesmycosin diacetate]" class_label="false (0)"
compound="CCC1OC(=O)CC(O)C(C)C(OC2OC(C)C(O)C(N(C)C)C2O)C(CCOc2nnc(-c3ccccc3)c(-c3ccccc3)n2)CC(C)C(=O)C=CC(C)=CC1COC1OC(C)C(O)C(OC)C1OC (stereo not drawn)" class_label="true (1)"
compound="CCC1OC(=O)CC(O)C(C)C(OC2OC(C)C(O)C(N(C)C)C2O)C(CCOc2ncnc3ccccc23)CC(C)C(=O)C=CC(C)=CC1COC1OC(C)C(O)C(OC)C1OC (stereo not drawn)" class_label="true (1)"

---

We begin with a simple list: items and their reported MIC.
Tested on: Staphylococcus aureus X1.1
Assay: MIC, standard agar-dilution assay, Staphylococcus aureus X1.1
Assay type: cell-based
Conditions: Staphylococcus aureus, X1.1
MEASURE: MIC (µg/mL)

compound="CCC1OC(=O)CC(O)C(C)C(OC2OC(C)C(OC3CC(C)(O)C(O)C(C)O3)C(N(C)C)C2O)C(CCI)CC(C)C(=O)C=CC(C)=CC1COC1OC(C)C(O)C(O)C1OC (stereo not shown) [Compound 52, 20-DH-DO-20-Iodomacrocin]" measure=MIC measured_value=2
compound="CCC1OC(=O)CC(O)C(C)C(OC2OC(C)C(O)C(N(C)C)C2O)C(CCF)CC(C)C(=O)C=CC(C)=CC1COC1OC(C)C(O)C(OC)C1OC (stereo not shown) [Compound 22, 20-DH-DO-20-Fluorodesmycosin]" measure=MIC measured_value=0.25
compound="CCC1OC(=O)CC(O)C(C)C(OC2OC(C)C(O)C(N(C)C)C2O)C(CCOc2ccc(C(=O)c3ccccc3)cc2)CC(C)C(=O)C=CC(C)=CC1COC1OC(C)C(O)C(OC)C1OC (stereo not shown) [Compound 37, 20-DH-20-O-(p-Benzoylphenyl)desmycosin]" measure=MIC measured_value=0.25
compound="CCC1OC(=O)CC(O)C(C)C(OC2OC(C)C(OC3CC(C)(O)C(O)C(C)O3)C(N(C)C)C2O)C(CCN2C(=O)c3ccccc3C2=O)CC(C)C(=O)C=CC(C)=CC1COC1OC(C)C(O)C(OC)C1OC (stereo not shown) [Compound 1, 20-DH-DO-20-N-Phthalimidotylosin]" measure=MIC measured_value=1

Origin of values: patent US4443436A
